# systemTested: Prostaglandin E2 receptor EP3 subtype (Homo sapiens)
# protocol: Antagonist activity at human EP3 receptor assessed as cAMP production by cell-based assay
# Assay type: functional
pIC50: −log10 of the molar value.
metricName: pIC50

(1) O=C(COc1cccc2[nH]cc(S(=O)(=O)c3ccc(Cl)c(Cl)c3)c12)NS(=O)(=O)c1cc(Cl)c(Cl)s1
(2) O=C(COc1cccc2[nH]cc(Sc3ccc(Cl)c(Cl)c3)c12)NS(=O)(=O)c1cc(Cl)c(Cl)s1
Prompt: Lower pIC50: 1 or 2 ? Indicate your choice by writing its label.
Response: 1
(1: 9.00, 2: 9.52)

---

# systemTested: Prostaglandin E2 receptor EP3 subtype (Homo sapiens)
# Sequence (P43115 whole entry): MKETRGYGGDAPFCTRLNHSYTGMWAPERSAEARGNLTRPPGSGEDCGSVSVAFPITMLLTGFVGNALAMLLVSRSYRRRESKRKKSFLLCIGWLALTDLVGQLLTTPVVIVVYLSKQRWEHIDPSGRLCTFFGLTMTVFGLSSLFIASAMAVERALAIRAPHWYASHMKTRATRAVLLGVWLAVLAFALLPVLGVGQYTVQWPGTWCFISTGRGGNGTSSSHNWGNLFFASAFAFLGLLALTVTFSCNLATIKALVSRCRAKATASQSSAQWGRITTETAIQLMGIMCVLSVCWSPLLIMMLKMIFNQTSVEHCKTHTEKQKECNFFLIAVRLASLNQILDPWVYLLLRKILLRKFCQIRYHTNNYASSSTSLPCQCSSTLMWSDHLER
# protocol: Displacement of [3H]PGE2 from human EP3 receptor in presence of 10% human serum
metricName: fold shift

(P) O=C(COc1cccc2[nH]cc(Sc3ccc4ccccc4c3)c12)NS(=O)(=O)c1ccccc1Cl
(Q) O=C(COc1cccc2[nH]cc(Sc3ccc4ccccc4c3)c12)NS(=O)(=O)c1cccs1
(R) Cc1ccc(Sc2c[nH]c3cccc(OCC(=O)NS(=O)(=O)c4cc(Cl)c(Cl)s4)c23)c(C)c1
(S) COc1ccccc1Sc1c[nH]c2cccc(OCC(=O)NS(=O)(=O)c3cc(Cl)c(Cl)s3)c12
Prompt: Please put the entries in order of rising fold shift. A ranking is expressed here by listing the labels in the requested order.
Response: R, S, Q, P
